meta.source: patent US12319684B2

TESTED_TARGET: human apelin receptor (APJ, AGTRL-1, APLNR) (Homo sapiens)
Construct: host or cells: Chinese hamster ovary cells
Sequence (P35414 1-380): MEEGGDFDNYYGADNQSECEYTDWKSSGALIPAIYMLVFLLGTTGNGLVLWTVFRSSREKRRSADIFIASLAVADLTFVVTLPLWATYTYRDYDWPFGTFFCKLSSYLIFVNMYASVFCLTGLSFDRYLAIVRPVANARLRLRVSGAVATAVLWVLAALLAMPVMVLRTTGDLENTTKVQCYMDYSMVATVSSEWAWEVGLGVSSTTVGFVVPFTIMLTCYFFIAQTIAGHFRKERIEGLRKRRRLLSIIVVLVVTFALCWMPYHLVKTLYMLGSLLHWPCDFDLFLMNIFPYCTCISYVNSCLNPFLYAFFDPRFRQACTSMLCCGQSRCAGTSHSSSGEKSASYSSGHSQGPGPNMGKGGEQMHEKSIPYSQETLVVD
PROTOCOL_SUMMARY: APJ cAMP cell-based assay (forskolin-stimulated CHO cells, enzyme fragment complementation)
STATED_CONDITIONS: CHO cells expressing human APJ, forskolin-stimulated, 0.5 h incubation; 50% of control (apelin-13, 1 nM) response; read-out: APJ cAMP EC50
MEASURE: log10(EC50) (log10 of the value in µM)

{"ITEM_SMILES": "COc1ccccc1-n1c(SCc2cc(=O)n3cc(C)ccc3n2)nnc1-c1ccc(N(C)C)cc1", "log10(EC50)": 1.13}
{"ITEM_SMILES": "COc1ccccc1-n1c(SCc2cc(=O)n3cc(C)ccc3n2)nnc1-c1ccco1", "log10(EC50)": -0.51}
{"ITEM_SMILES": "COc1ccccc1-n1c(SCc2coc(-c3ccc(OC(F)(F)F)cc3)n2)nnc1-c1cccs1", "log10(EC50)": 0.59}
{"ITEM_SMILES": "COc1ccccc1-n1c(SCc2cc(F)cc(F)c2)nnc1-c1cccs1", "log10(EC50)": 0.93}
{"ITEM_SMILES": "COc1ccccc1-n1c(SCc2cc(=O)n3cc(C)ccc3n2)nnc1-c1ccc(C)o1", "log10(EC50)": -2.35}
{"ITEM_SMILES": "COc1ccccc1-n1c(SCc2cc(=O)n3ccc(C)cc3n2)nnc1-c1cccs1", "log10(EC50)": -0.35}
